# System: NCI-H322M lung
# Measurement protocol: NCI-60 one-dose screen, 48 h (100 = growth as untreated, 0 = no growth, -100 = all killed)
# Condition set: 10 µM unless noted
About 83,000 compounds went through this panel and 20% of them were active in at least one assay; those are over-represented in the sample as a whole.
Measurement name: growth (%)
The reply should be a number in %, with the unit left off.

Past entries and their recorded results:
Compound	Readout number
COc1cc2c(c(OC)c1OC)-c1ccc(OC)c(=O)cc1[C@@H](NC(=O)CCl)CC2	52.1
COc1ccc(C(=O)Nc2ncc(Cc3ccc(F)cc3)s2)cc1	34.6
COc1ccccc1NC(=O)Cn1cc(CN2CCN(c3ccnc4cc(Cl)ccc34)CC2)nn1	95.1

Observed growth on NCI-H322M lung, entry CN(C)CCCC1(c2ccc(F)cc2)OCc2cc(-c3cncc4ccccc34)ccc21 (centres undefined) , equals 51.5

Observed growth on NCI-H322M lung, entry C1=C(N2CCCC2)CCC1 , equals 109

###

# System: LOX IMVI melanoma
# Measurement protocol: NCI-60 one-dose screen, 48 h
# Condition set: 10 µM unless noted
Compounds without any hit were thinned out: in the full panel of roughly 83,000, 20% have a hit. The source made the active and inactive calls. How the source made its calls: active means growth percent below 10; inactive means the rest.
Response enum: true (active), false (inactive)

# count of solved cases: 4
Compound	Target system	Label class
C=C(C)[C@@H]1CC[C@]2(C(=O)NCCNCCN)CC[C@]3(C)[C@H](CC[C@@H]4[C@@]5(C)C/C(=C/c6ccncc6)C(=O)C(C)(C)[C@@H]5CC[C@]43C)[C@@H]12	LOX IMVI melanoma	false
CC1(c2ccccc2O)NN=C(/N=C/c2cccc([N+](=O)[O-])c2)N1C(Cc1c[nH]c2ccccc12)C(=O)O (stereo not given)	LOX IMVI melanoma	false
O=C1Nc2ccccc2/C1=C\c1nc(-c2ccccc2F)n2ccccc12	LOX IMVI melanoma	false
CC1=C(Nc2ccc(N3CCN(C)CC3)cc2)C(=O)c2cncnc2C1=O	LOX IMVI melanoma	true

Can you look up the reported call for CCN1CCN(c2cc(C(=O)Nc3nc(-c4cc(OC)c(OC)c(OC)c4)cs3)cc(C(F)(F)F)c2)CC1 for me? false

Can you look up the reported call for Cc1oc(-c2ccc(Cl)cc2)nc1/C=C/C(=O)c1ccccc1 for me? false

Can you look up the reported call for Cc1ccc(S(=O)(=O)N2CCCC2CO)cc1 (stereo not given) for me? false

Can you look up the reported call for Cc1ccc(Cc2cnc(NC(=O)c3cc(Br)cs3)s2)cc1 for me? false

Can you look up the reported call for Cc1ccc(-c2nc(N3CCNCC3)c3oc(-c4ccccc4)nc3n2)cc1 for me? true

Can you look up the reported call for CCSc1nc(NC)c2cc(-c3ccc(C(F)(F)F)cc3)ccc2n1 for me? false

Can you look up the reported call for Cn1cc(-c2csc(-c3c[nH]c4ccc(Br)cc34)n2)c2cnccc21 for me? true

Can you look up the reported call for Cc1nc2ncnc(Cl)c2[nH]1 for me? false

Can you look up the reported call for Cc1ccc(-c2nc3nc(-c4ccc(F)cc4)nc(N4CCNCC4)c3o2)cc1 for me? true

Can you look up the reported call for CC(C)CCNC(=O)Cn1cccc(NC(=O)OCc2ccccc2)c1=O for me? false

Can you look up the reported call for Brc1ccc(-n2cc(-c3nn[nH]n3)c(-c3cccs3)n2)cc1 for me? false
